- measured-target: HLA-A*02:01
- protocol-details: IEDB peptide-MHC binding, purified MHC/competitive/fluorescence; filed as Kd, often an IC50 or EC50 that approximates it; bounds were set here for any values at or beyond the usual limits of such assays
- particulars: source organism: Influenza A virus (A/parakeet/Chiba/1/97(H9N2))
measure: pKd
Just the number, please; pKd means minus log10 of the concentration in mol/L.

Query: Query (sequence): `RQMATTTNPLI` ; field requested: pKd
Result: 7.89

###

- measured-target: HLA-A*02:01
- protocol-details: IEDB peptide-MHC binding, purified MHC/competitive/fluorescence; filed as Kd, often an IC50 or EC50 that approximates it; bounds were set here for any values at or beyond the usual limits of such assays
- particulars: source organism: Rickettsia sibirica 246
measure: Kd

Query: Look at this sequence and give its reported Kd. `AMYDPQTYY`
Result: ≥ 20 µM

###

- measured-target: HLA-B*15:17
- protocol-details: IEDB peptide-MHC binding, purified MHC/direct/fluorescence; filed as Kd, often an IC50 or EC50 that approximates it; bounds were set here for any values at or beyond the usual limits of such assays
- particulars: source organism: Giardia lamblia ATCC 50803
Listed below: Kd values for each entry.
Write the answer as a number in nM, unit excluded.

HSSVAGGLW	1.1

Query: Give the reported Kd for `QLKQRDALF` (system: HLA-B*15:17).
Result: 65.7

###

- measured-target: HLA-B*40:01
- protocol-details: IEDB peptide-MHC binding, purified MHC/direct/fluorescence; filed as Kd, often an IC50 or EC50 that approximates it; bounds were set here for any values at or beyond the usual limits of such assays
- particulars: source organism: Yersinia pestis
pKd: −log10 of the molar value.
measure: pKd

Query: API: value(readout=pKd, system=HLA-B*40:01) for record `LLIDDSFSS`
Result: ≤ 4.70

###

- measured-target: HLA-B*51:01
- protocol-details: IEDB peptide-MHC binding, purified MHC/competitive/radioactivity; filed as Kd, often an IC50 or EC50 that approximates it; bounds were set here for any values at or beyond the usual limits of such assays
- particulars: source organism: Dengue virus 3 Singapore/8120/1995
measure: pKd
Kindly note that pKd refers to -log10 of the concentration in mol/L and answer with the value alone.

Query: # query: pKd of entry `MADVPLQWI`
Result: 5.64

###

- measured-target: HLA-A*30:02
- protocol-details: IEDB peptide-MHC binding, purified MHC/competitive/radioactivity; filed as Kd, often an IC50 or EC50 that approximates it; bounds were set here for any values at or beyond the usual limits of such assays
- particulars: source organism: Mammarenavirus guanaritoense
measure: pKd
Reminder that pKd is minus the log10 of a molar concentration.

SMKSVQNNTV	5.53

Proceed to the following item.
Query: Need pKd of `AVFQPSTGNY` , thanks.
Result: 7.67

###

- measured-target: HLA-B*15:01
- protocol-details: IEDB peptide-MHC binding, purified MHC/direct/fluorescence; filed as Kd, often an IC50 or EC50 that approximates it; bounds were set here for any values at or beyond the usual limits of such assays
- particulars: source organism: Reston ebolavirus - Reston
measure: Kd (nM)
Give a bare numeral; the unit nM is implied.

Query: Any idea what its Kd is? The sequence is `HLPGFGTAF`
Result: 72
